tested on: Escherichia coli; test: Antibacterial activity against Escherichia coli 10-3 after 18 to 24 hrs by NCCLS method; assay type: functional
Give measured MIC for each item. Keep answers brief.
The reply should be a number in µg/mL, with the unit left off.

# input Dear colleague, please send me the reported MIC for O=C(O)c1cn(C2CC2)c2cc(N3CCN(Cc4ccc5c(c4)OCO5)CC3)c(F)cc2c1=O when you can.
# output 16

# input Item O=C(O)c1cn(C2CC2)c2cc(N3CCN(Cc4ccccc4)CC3)c(F)cc2c1=O : provide MIC
# output 16

* * *

test system: Klebsiella pneumoniae; assay: Antibacterial activity against Klebsiella pneumoniae 10-2 after 18 to 24 hrs by NCCLS method; type: functional
quantityName: MIC

# input Specify reported MIC for the molecule shown: COc1ccc(OC)c(CN2CCN(c3cc4c(cc3F)c(=O)c(C(=O)O)cn4C3CC3)CC2)c1
# output > 128 µg/mL

# input State its MIC: O=C(O)c1cn(C2CC2)c2cc(N3CCN(Cc4ccc(OCc5ccccc5)cc4)CC3)c(F)cc2c1=O
# output > 128 µg/mL

# input Read off the recorded MIC for COc1cccc(CN2CCN(c3cc4c(cc3F)c(=O)c(C(=O)O)cn4C3CC3)CC2)c1OC
# output > 128 µg/mL

# input Supply MIC value. Item: COc1cc(CN2CCN(c3cc4c(cc3F)c(=O)c(C(=O)O)cn4C3CC3)CC2)c([N+](=O)[O-])cc1OC
# output > 128 µg/mL

# input Recall and state the measured MIC for COc1cc(CN2CCN(c3cc4c(cc3F)c(=O)c(C(=O)O)cn4C3CC3)CC2)cc(OC)c1 .
# output > 128 µg/mL

# input Give reported MIC value for O=C(O)c1cn(C2CC2)c2cc(N3CCN(Cc4ccc5c(c4)OCCO5)CC3)c(F)cc2c1=O
# output > 128 µg/mL

# input Specify measured MIC for O=C(O)c1cn(C2CC2)c2cc(N3CCN(Cc4ccc5c(c4)OCO5)CC3)c(F)cc2c1=O .
# output 64 µg/mL

# input Quote MIC reported for COc1cc(Br)c(CN2CCN(c3cc4c(cc3F)c(=O)c(C(=O)O)cn4C3CC3)CC2)cc1OC please.
# output > 128 µg/mL

# input Determine its reported MIC: COc1ccc(CN2CCN(c3cc4c(cc3F)c(=O)c(C(=O)O)cn4C3CC3)CC2)cc1
# output > 128 µg/mL

# input Give the value of MIC reported for the following: COc1cc(CN2CCN(c3cc4c(cc3F)c(=O)c(C(=O)O)cn4C3CC3)CC2)ccc1OCc1ccccc1
# output > 128 µg/mL

# input Consider the molecule O=C(O)c1cn(C2CC2)c2cc(N3CCN(Cc4ccccc4)CC3)c(F)cc2c1=O and give its recorded MIC.
# output > 128 µg/mL

# input Please give measured MIC of the following entry: COc1ccc(CN2CCN(c3cc4c(cc3F)c(=O)c(C(=O)O)cn4C3CC3)CC2)cc1OC
# output > 128 µg/mL

# input Indicate the recorded MIC value for this molecule: COc1ccc(CN2CCN(c3cc4c(cc3F)c(=O)c(C(=O)O)cn4C3CC3)CC2)c(OC)c1OC
# output > 128 µg/mL

# input Respond only with MIC recorded for COc1cc(CN2CCN(c3cc4c(cc3F)c(=O)c(C(=O)O)cn4C3CC3)CC2)cc(OC)c1OC
# output > 128 µg/mL

# input // Input: O=C(O)c1cn(C2CC2)c2cc(N3CCNCC3)c(F)cc2c1=O [CIPROFLOXACIN] . Output its MIC only.
# output 32 µg/mL

# input Report MIC, nothing else, for this molecule: O=C(O)c1cn(C2CC2)c2cc(N3CCN(Cc4cc5c(cc4[N+](=O)[O-])OCO5)CC3)c(F)cc2c1=O
# output 64 µg/mL

# input // fetch MIC given entry COc1ccc(CN2CCN(c3cc4c(cc3F)c(=O)c(C(=O)O)cn4C3CC3)CC2)c(Cl)c1OC
# output > 128 µg/mL
